# ASSAY_METHOD_TEXT: Apparent permeability across apical to basal side in human Caco-2 cells at 10 uM by LC-MS/MS analysis
# Assay type: ADME, cell-based
PROPERTY: Papp A→B at 10 µM (×10⁻⁶ cm/s)

COc1cccc2c(N3CCC(CCP(=O)(O)O)CC3)ncnc12
0.118

1: COc1cccc2c(N3CCC(O)(CNS(N)(=O)=O)CC3)ncnc12
2: Cn1nc(Cc2ccc(NS(N)(=O)=O)cc2)c2ccccc2c1=O
Input: When their Papp A→B at 10 µM values are compared, which is larger, 1 or 2 ? Pick one; state its label.
Output: 2
(2: 6.06 ×10⁻⁶ cm/s, 1: 0.106 ×10⁻⁶ cm/s)
